Data provenance: ChEMBL document CHEMBL1127817

Some compounds, each annotated with its measured GI50.
Tested on: KM-20L2
Assay: In vitro inhibition of tumor cell growth of KM20L2, colon cancer cell line
Type: functional
Conditions: Homo sapiens
MEASURED_METRIC: GI50 (µM)

>  <STRUCTURE_NOTATION>
COc1cc2nc(-c3cccc(N(C)C)c3)cc(O)c2cc1OC

>  <INEQUALITY_SIGN>
=

>  <MEASURED>
2

$$$$
>  <STRUCTURE_NOTATION>
CN(C)c1cccc(-c2cc(O)c3cc4c(cc3n2)OCO4)c1

>  <INEQUALITY_SIGN>
=

>  <MEASURED>
0.229

$$$$
>  <STRUCTURE_NOTATION>
Oc1cc(-c2ccccn2)nc2cc(F)ccc12

>  <INEQUALITY_SIGN>
>

>  <MEASURED>
100

$$$$
>  <STRUCTURE_NOTATION>
COc1ccc2c(c1)CCc1c-2nc2cc3c(cc2c1O)OCO3

>  <INEQUALITY_SIGN>
>

>  <MEASURED>
100

$$$$
>  <STRUCTURE_NOTATION>
COc1ccc(-c2cc(O)c3cc4c(cc3n2)OCO4)c(OC)c1

>  <INEQUALITY_SIGN>
=

>  <MEASURED>
42.7

$$$$
>  <STRUCTURE_NOTATION>
Oc1cc(-c2ccc3c(c2)OCO3)nc2cc3c(cc12)OCO3

>  <INEQUALITY_SIGN>
=

>  <MEASURED>
26.3

$$$$
>  <STRUCTURE_NOTATION>
COc1ccc2nc(-c3ccc(O)cc3)cc(O)c2c1

>  <INEQUALITY_SIGN>
=

>  <MEASURED>
0.407

$$$$
>  <STRUCTURE_NOTATION>
COc1ccc(-c2cc(O)c3cc4c(cc3n2)OCO4)c(OC)c1OC

>  <INEQUALITY_SIGN>
>

>  <MEASURED>
100

$$$$
>  <STRUCTURE_NOTATION>
Oc1cc(-c2cccs2)nc2cc3c(cc12)OCO3

>  <INEQUALITY_SIGN>
=

>  <MEASURED>
14.5

$$$$
>  <STRUCTURE_NOTATION>
Oc1cc(-c2ccc(Oc3ccccc3)cc2)nc2cc3c(cc12)OCO3

>  <INEQUALITY_SIGN>
>

>  <MEASURED>
100

$$$$
>  <STRUCTURE_NOTATION>
COc1cc(-c2cc(O)c3ccccc3n2)cc(OC)c1OC

>  <INEQUALITY_SIGN>
>

>  <MEASURED>
100

$$$$
>  <STRUCTURE_NOTATION>
Oc1cc(-c2c[nH]c3ccccc23)nc2cc3c(cc12)OCO3

>  <INEQUALITY_SIGN>
>

>  <MEASURED>
100

$$$$
